Every entry's value here was drawn from paper PMC5540273.

- Tested on: SRPK1;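 note: KINOMEscan kinase panel screen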
- condition: concentration: 1 μM, replicates: in singlicate; n = 1
One threshold, 20%, splits the recorded %Inh values: lower ones are t, equal or higher ones are f.

# compound, class.label
rows = [
    ("COc1ccc(C2=C(Nc3cccc(O)c3)C(=O)NC2=O)cc1", "f"),
    ("COc1cc(Nc2nccc(N3CCC(NS(=O)(=O)c4ccc(NC(C)=O)cc4)CC3)n2)cc(OC)c1OC", "f"),
    ("Cl.N#CCc1ccc(Nc2nccc(Nc3ccc(Oc4ccccc4)cc3)n2)cc1", "t"),
    ("CC(C)c1nc(-c2ccc(F)c(NS(=O)(=O)c3c(F)cccc3F)c2)c(-c2ccnc(Nc3ccc(N4CCOCC4)nc3)n2)s1", "f"),
    ("O=C(Nc1c(F)cccc1F)c1cc(C(=O)c2ccccc2F)c[nH]1", "t"),
]

Query: Strictly below 20% in %Inh? O=C(Nc1n[nH]c2nc(-c3ccccc3)ccc12)C1CC1
Result: f

Query: Strictly below 20% in %Inh? Cl.Cl.NC(CNC(=O)c1cc(Br)c(-c2ccnc3[nH]ccc23)s1)c1ccccc1 (stereo not drawn)
Result: f

Query: Strictly below 20% in %Inh? Fc1cc(Cl)ccc1Nc1ccnc2cc(-c3ccc(CN4CCOCC4)o3)ccc12
Result: f

Query: Strictly below 20% in %Inh? CCNc1nccc(-c2c(-c3ccc(F)cc3)ncn2C2CCN(C)CC2)n1
Result: t

Query: Strictly below 20% in %Inh? Nc1ncnc2scc(-c3ccc(NC(=O)Cc4cc(F)ccc4F)cc3)c12.O=C(O)C(F)(F)F
Result: t
